# study system: T1, huEpoR expressed on the cell surface (UT-7 cells) (human, UniProt P19235 25-508)
# T1 sequence (looked up): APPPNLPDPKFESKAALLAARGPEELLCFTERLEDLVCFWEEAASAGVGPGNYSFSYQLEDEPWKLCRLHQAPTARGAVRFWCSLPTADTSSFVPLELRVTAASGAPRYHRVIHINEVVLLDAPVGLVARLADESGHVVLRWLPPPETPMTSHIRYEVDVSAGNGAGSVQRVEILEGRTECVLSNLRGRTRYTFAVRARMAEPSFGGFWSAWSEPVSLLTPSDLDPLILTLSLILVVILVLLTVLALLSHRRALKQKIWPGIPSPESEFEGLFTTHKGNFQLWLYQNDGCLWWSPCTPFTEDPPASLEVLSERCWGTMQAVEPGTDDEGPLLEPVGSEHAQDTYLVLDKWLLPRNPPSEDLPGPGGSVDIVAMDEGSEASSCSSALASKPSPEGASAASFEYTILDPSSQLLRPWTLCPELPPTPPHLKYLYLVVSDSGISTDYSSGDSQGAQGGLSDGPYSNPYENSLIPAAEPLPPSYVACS
# assay explanation: cell-based or functional assay
experimental readout: Average EC50 (nM), UT-7-luciferase (STAT5 reporter) assay
Write the value in nM as a bare number.

[
  {
    "binder": "Mxb 276 (clone 276 scFv-Fc protein) (Fc fusion) VH: EVQLVQSGGGLVQPGGSLRLSCAASGFTFSSYWMSWVRQAPGKGLEWVANIKPDGSEKYYVDSVKGRFTISRDNAKNSVYLQMNSLRAEDTAVYYCARVSRGGSYSDWGRGTMVTVSS VL: QSVLTQPPSASGSPGQSVTISCTGTSSDVGGFNYVSWYQKYPGKAPKLVIYEVSKRPSGVPDRFSGSKSGNTASLTVSGLQAEDEADYYCSSWAPGKNLFGGGTKLTVL",
    "numeric value": 0.322
  },
  {
    "binder": "Mxb 318 (clone 318 scFv-Fc protein) (Fc fusion, Tested as scFv-Fc (maxibody) with an Fc derived from human IgG1) VH: QVQLVESGGGLVQPGGSLRLSCAVSGFTFSKYWMTWVRQAPGKGLEWVANIKPDGSEKYYVESVKGRFTISRDNAKNSVYLQMNSVRAEDTAVYYCARVSRGGSFSDWGQGTLVTVSS VL: QSVLTQPPSASGSPGQSVTISCTGTSSDVGGYNYVSWYQQHPGRAPKLIIYEVSKRPSGVPDRFSGSKSGNTASLTVSGLQADDEADYYCNSYAGSIYVFGSGTKVTVL",
    "numeric value": 0.0154
  },
  {
    "binder": "Mxb 319 (clone 319 scFv-Fc protein) (Fc fusion, Tested as scFv-Fc (maxibody) with an Fc derived from human IgG1) VH: QVQLVQSGAEIKKPGASVKVSCKTFGSPFSTNDIHWVRQAPGQGLEWMGIIDTSGAMTRYAQKFQGRVTVTRETSTSTVYMELSSLKSEDTAVYYCAREGCTNGVCYDNGFDIWGQGTLVTVSS VL: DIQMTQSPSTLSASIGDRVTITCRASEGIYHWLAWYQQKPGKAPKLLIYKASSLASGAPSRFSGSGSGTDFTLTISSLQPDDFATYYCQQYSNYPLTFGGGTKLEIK",
    "numeric value": 5.87
  },
  {
    "binder": "Mxb 34 (clone 34 scFv-Fc protein) (Fc fusion, Tested as scFv-Fc (maxibody) with an Fc derived from human IgG1) VH: QVQLQQSGAEVKKPGASVKVSCKASGYTFSGYYMHWVRQAPGQGLEWMGWINPNSGSTNYAQKFLGRVTMTRDTSISTAYMELSSLRSDDTAVYYCARGHSGDYFDYWGQGTLVTVSA VL: EIVLTQSPSSLSASVGDRVTITCRASQSVSSWLAWYQQRPGQAPKLLIYAARLRGGGPSRFSGSGSGTEFTLTISSLQPEDFATYFCQQSYSTPISFGGGTKLEIK",
    "numeric value": 0.11
  }
]

Item Mxb 307 (clone 307 scFv-Fc protein) (Fc fusion, Tested as scFv-Fc (maxibody) with an Fc derived from human IgG1) VH: EVQLVESGGGLVQPGGSLRLSCAVSGFTFSKYWMTWVRQAPGKGLEWVANIKPDGSEKYYVESVKGRFTISRDNAKNSVYLQMNSVRAEDTAVYYCARVSRGGSFSDWGQGTMVTVSS VL: QSVLTQPPSASGSPGQSVTISCTGTSSDVGGYNYVSWYQQHPDKAPRLMIYDVNKRPSGVPDRFSGSKSGNTASLTVSGLQAEDEAHYYCNSYAGSNNWVFGGGTQLTVL has what recorded Average EC50 (nM), UT-7-luciferase (STAT5 reporter) assay?
0.381

Item Mxb 330 (clone 330 scFv-Fc protein) (Fc fusion, Tested as scFv-Fc (maxibody) with an Fc derived from human IgG1) VH: EVQLVESGGGLVQPGGSLRLSCAVSGFTFSKYWMTWVRQAPGKGLEWVANIKPDGSEKYYVESVKGRFTISRDNAKNSVYLQMNSVRAEDTAVYYCARVSRGGSFSDWGQGTLVTVSS VL: QSALTQPPSASGSPGQSVTISCTGTSSDVGAYNYVSWYQQHPGKAPKLMIYEVARRPSGVPDRFSGSKSGNTASLTVSGLQAEDEADYYCSSYAGSNNFAVFGRGTKLTVL has what recorded Average EC50 (nM), UT-7-luciferase (STAT5 reporter) assay?
0.0075

Item Mxb 13 (clone 13 scFv-Fc protein) (Fc fusion, Tested as scFv-Fc (maxibody) with an Fc derived from human IgG1) VH: QVQLQQSGGGVVQPGRSLRLSCAASGFTFSDYAMHWVRQAPGKGLEWVAVISNHGKSTYYADSVKGRFTISRDNSKHMLYLQMNSLRADDTALYYCARDIALAGDYWGQGTLVTVSA VL: DIQMTQSPSSLSASVGDRVTITCRASQSISSYLNWYQQLPGKVPKLLIYGASKLQSGVPSRFSGSGSGTDFTLTISSLQPEDFATYYCLQDYNYPLTFGPGTRLEIK has what recorded Average EC50 (nM), UT-7-luciferase (STAT5 reporter) assay?
4.03

Item Mxb 323 (clone 323 scFv-Fc protein) (Fc fusion) VH: QVQLVESGGGLVQPGGSLRLSCAVSGFTFSKYWMTWVRQAPGKGLEWVANIKPDGSEKYYVESVKGRFTISRDNAKNSVYLQMNSVRAEDTAVYYCARVSRGGSFSDWGRGTMVTVSS VL: QSALTQPASVSGSPGQSITISCTGTSSDVGSYNLVSWYQQHPGKVPKLIIYEVSNRPSGVSHRFSGSKSGNTASLTISGLQAEDEADYYCSSLTSSGTWVFGGGTKVTVL has what recorded Average EC50 (nM), UT-7-luciferase (STAT5 reporter) assay?
0.613

Item Mxb 15 (clone 15 scFv-Fc protein) (Fc fusion, Tested as scFv-Fc (maxibody) with an Fc derived from human IgG1) VH: QVQLQESGPGLVRPSGTLSLTCAVSGGSIGSSNWWSWVRQAPGKGLEWIGEISQSGSTNYNPSLKGRVTISLDRSRNQLSLKLSSVTAADTAVYYCARQLRSIDAFDIWGPGTTVTVSA VL: SYVLTQPPSVSVSPGLTATITCSGDKLGDKYASWYQQKPGQSPVLVIYQDRKRPSGIPERFSGSNSGNTATLTISGTQAVDEADYYCQAWDSDTSYVFGTGTQLTVL has what recorded Average EC50 (nM), UT-7-luciferase (STAT5 reporter) assay?
2.8

Item Mxb 295 (clone 295 scFv-Fc protein) (Fc fusion, Tested as scFv-Fc (maxibody) with an Fc derived from human IgG1) VH: EVQLVESGGGLVQPGGSLRLSCAASGFTFSSYAMSWVRQAPGKGLEWVSGISGSGSSEGGTYYADSVKGRFTLSRDNSKNTLYLQMNSLRAEDTALYYCVKDRPSRYSFGYYFDYWGRGTLVTVSS VL: LPVLTQPPSVSVSPGQTASIACSGNKLGDKYVSWYQQKPGQSPLLVIYQDTKRPSGIPERFSGSNSGNTATLTISGTQAMDEADYYCQAWDSSTDVVFGGGTKLTVL has what recorded Average EC50 (nM), UT-7-luciferase (STAT5 reporter) assay?
0.607

Item Mxb 201 (clone 201 scFv-Fc protein) (Fc fusion, Tested as scFv-Fc (maxibody) with an Fc derived from human IgG1) VH: QVQLQESGSGLARPSQTLSLTCAVSGGSISSSAFSWNWIRQPPGKGLEWIGYIYHTGITDYNPSLKSRVTISVDRSKNQFSLNVNSVTAADTAVYYCARGHGSDPAWFDPWGKGTLVTVSS VL: QSVLTQPPSVSVSPGQTASITCSGDKLGDKYASWYQQRPGQSPVLVIYRDTKRPSGIPERFSGSNSGNTATLTISGTQAVDEADYYCQAWDSTTSLVFGGGTKLTVL has what recorded Average EC50 (nM), UT-7-luciferase (STAT5 reporter) assay?
8.28
